Experiment: Selectivity ratio of IC50 for Electrophorus electricus acetylcholinesterase to IC50 for equine serum butyrylcholinesterase
Each entry below carries its recorded Ratio IC50.

# example entries with known answers
compound | observedMeasurement
Fc1ccc(/C=C2\CNCC3=C2N=C2SC=C(c4ccccc4)N2C3c2ccc(F)cc2)cc1 (stereo not drawn) | 1.02
Cc1ccc(/C=C2\CNCC3=C2N=C2SC=C(c4ccc(F)cc4)N2C3c2ccc(C)cc2)cc1 (stereo not drawn) | 1.32
COc1ccccc1/C=C1\CNCC2=C1N=C1SC=C(c3ccc(F)cc3)N1C2c1ccccc1OC (stereo not drawn) | 0.63
Fc1ccc(C2=CSC3=NC4=C(CNC/C4=C\c4ccccc4Cl)C(c4ccccc4Cl)N23)cc1 (stereo not drawn) | 0.76
Fc1ccc(/C=C2\CNCC3=C2N=C2SC=C(c4ccc(Cl)cc4)N2C3c2ccc(F)cc2)cc1 (stereo not drawn) | 0.46
Clc1ccccc1/C=C1\CNCC2=C1N=C1SC=C(c3ccccc3)N1C2c1ccccc1Cl (stereo not drawn) | 0.77
Clc1ccc(/C=C2\CNCC3=C2N=C2SC=C(c4ccc(Cl)cc4)N2C3c2ccc(Cl)cc2)cc1 (stereo not drawn) | 0.2
C1=C(c2ccccc2)N2C(=NC3=C(CNC/C3=C\c3ccccc3)C2c2ccccc2)S1 (stereo not drawn) | 0.84

Q: Reported Ratio IC50, compound Clc1ccc(C2=CSC3=NC4=C(CNC/C4=C\c4ccccc4Cl)C(c4ccccc4Cl)N23)cc1 (stereo not drawn) : ____
Ans: 0.68

* * *

Each entry below carries its recorded Ratio IC50.
Test: Selectivity ratio of IC50 for Electrophorus electricus acetylcholinesterase to IC50 for equine serum butyrylcholinesterase

# example entries with known answers
compound | observedMeasurement
COc1ccc(C2=CSC3=NC4=C(CNC/C4=C\c4ccccc4Cl)C(c4ccccc4Cl)N23)cc1 (stereo unspecified) | 0.63
COc1ccc(C2=CSC3=NC4=C(CNC/C4=C\c4ccccc4OC)C(c4ccccc4OC)N23)cc1 (stereo unspecified) | 0.64
COc1ccc(C2=CSC3=NC4=C(CNC/C4=C\c4ccc(F)cc4)C(c4ccc(F)cc4)N23)cc1 (stereo unspecified) | 0.84
Clc1ccc(/C=C2\CNCC3=C2N=C2SC=C(c4ccccc4)N2C3c2ccc(Cl)cc2)cc1 (stereo unspecified) | 0.74
Cc1ccc(/C=C2\CNCC3=C2N=C2SC=C(c4ccc(Cl)cc4)N2C3c2ccc(C)cc2)cc1 (stereo unspecified) | 0.67

# context switch: different compound, same Ratio IC50
Q: Reported Ratio IC50, compound Fc1ccc(C2=CSC3=NC4=C(CNC/C4=C\c4ccccc4)C(c4ccccc4)N23)cc1 (stereo unspecified) : ____
Ans: 2.57

* * *

Target: Acetylcholinesterase (Electrophorus electricus)
Sequence (O42275 whole entry): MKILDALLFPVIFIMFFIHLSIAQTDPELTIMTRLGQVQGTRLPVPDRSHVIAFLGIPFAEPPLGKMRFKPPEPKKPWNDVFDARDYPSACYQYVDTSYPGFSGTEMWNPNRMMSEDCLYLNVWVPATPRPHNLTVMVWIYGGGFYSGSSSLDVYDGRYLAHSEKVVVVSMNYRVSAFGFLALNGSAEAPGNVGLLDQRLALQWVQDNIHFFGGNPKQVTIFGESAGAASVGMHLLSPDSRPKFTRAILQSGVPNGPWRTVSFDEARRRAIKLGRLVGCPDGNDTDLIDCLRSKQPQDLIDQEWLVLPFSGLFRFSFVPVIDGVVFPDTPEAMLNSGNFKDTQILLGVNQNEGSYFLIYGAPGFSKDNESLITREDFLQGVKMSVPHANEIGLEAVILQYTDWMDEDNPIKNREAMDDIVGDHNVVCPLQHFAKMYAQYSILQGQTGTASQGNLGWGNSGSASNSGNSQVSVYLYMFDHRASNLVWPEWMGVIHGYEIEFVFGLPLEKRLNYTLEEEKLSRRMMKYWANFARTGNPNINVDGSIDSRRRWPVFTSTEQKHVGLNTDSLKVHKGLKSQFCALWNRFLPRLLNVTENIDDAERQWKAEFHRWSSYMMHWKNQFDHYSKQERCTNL
pIC50: −log10 of the molar value.
pIC50 vs 5: at or above is Met, below is Not met.

molecule | category
Clc1ccc(C2=CSC3=NC4=C(CNC/C4=C\c4ccccc4Cl)C(c4ccccc4Cl)N23)cc1 (stereo not given) | Met
Cc1ccc(/C=C2\CNCC3=C2N=C2SC=C(c4ccccc4)N2C3c2ccc(C)cc2)cc1 (stereo not given) | Met
Clc1ccccc1/C=C1\CNCC2=C1N=C1SC=C(c3ccccc3)N1C2c1ccccc1Cl (stereo not given) | Met
Fc1ccc(/C=C2\CNCC3=C2N=C2SC=C(c4ccccc4)N2C3c2ccc(F)cc2)cc1 (stereo not given) | Met
COc1ccccc1/C=C1\CNCC2=C1N=C1SC=C(c3ccc(Cl)cc3)N1C2c1ccccc1OC (stereo not given) | Met

Q: Can COc1ccccc1/C=C1\CNCC2=C1N=C1SC=C(c3ccccc3)N1C2c1ccccc1OC (stereo not given) be said to have pIC50 at or above 5?
Ans: Met

Q: Can Clc1ccc(/C=C2\CNCC3=C2N=C2SC=C(c4ccccc4)N2C3c2ccc(Cl)cc2)cc1 (stereo not given) be said to have pIC50 at or above 5?
Ans: Met

Q: Can S=C1NC2/C(=C/c3ccccc3)CNCC2C(c2ccccc2)N1 (stereo not given) be said to have pIC50 at or above 5?
Ans: Not met

Q: Can Cc1ccc(/C=C2\CNCC3=C2N=C2SC=C(c4ccc(F)cc4)N2C3c2ccc(C)cc2)cc1 (stereo not given) be said to have pIC50 at or above 5?
Ans: Met

Q: Can C1=C(c2ccccc2)N2C(=NC3=C(CNC/C3=C\c3ccccc3)C2c2ccccc2)S1 (stereo not given) be said to have pIC50 at or above 5?
Ans: Met

Q: Can Fc1ccc(C2=CSC3=NC4=C(CNC/C4=C\c4ccc(Cl)cc4)C(c4ccc(Cl)cc4)N23)cc1 (stereo not given) be said to have pIC50 at or above 5?
Ans: Met

Q: Can Clc1ccc(/C=C2\CNCC3=C2N=C2SC=C(c4ccc(Cl)cc4)N2C3c2ccc(Cl)cc2)cc1 (stereo not given) be said to have pIC50 at or above 5?
Ans: Met

Q: Can COc1ccc(C2=CSC3=NC4=C(CNC/C4=C\c4ccc(F)cc4)C(c4ccc(F)cc4)N23)cc1 (stereo not given) be said to have pIC50 at or above 5?
Ans: Not met

Q: Can COc1ccc(C2=CSC3=NC4=C(CNC/C4=C\c4ccccc4)C(c4ccccc4)N23)cc1 (stereo not given) be said to have pIC50 at or above 5?
Ans: Not met

Q: Can COc1ccccc1/C=C1\CNCC2C1NC(=S)NC2c1ccccc1OC (stereo not given) be said to have pIC50 at or above 5?
Ans: Met

Q: Can Clc1ccc(C2=CSC3=NC4=C(CNC/C4=C\c4ccccc4)C(c4ccccc4)N23)cc1 (stereo not given) be said to have pIC50 at or above 5?
Ans: Not met

Q: Can Cc1ccc(/C=C2\CNCC3=C2N=C2SC=C(c4ccc(Cl)cc4)N2C3c2ccc(C)cc2)cc1 (stereo not given) be said to have pIC50 at or above 5?
Ans: Not met

Q: Can Fc1ccc(C2=CSC3=NC4=C(CNC/C4=C\c4ccccc4)C(c4ccccc4)N23)cc1 (stereo not given) be said to have pIC50 at or above 5?
Ans: Not met

Q: Can COc1ccccc1/C=C1\CNCC2=C1N=C1SC=C(c3ccc(F)cc3)N1C2c1ccccc1OC (stereo not given) be said to have pIC50 at or above 5?
Ans: Met

Q: Can Cc1ccc(/C=C2\CNCC3C2NC(=S)NC3c2ccc(C)cc2)cc1 (stereo not given) be said to have pIC50 at or above 5?
Ans: Not met

Q: Can Fc1ccc(/C=C2\CNCC3C2NC(=S)NC3c2ccc(F)cc2)cc1 (stereo not given) be said to have pIC50 at or above 5?
Ans: Not met

Q: Can S=C1NC2/C(=C/c3ccc(Cl)cc3)CNCC2C(c2ccc(Cl)cc2)N1 (stereo not given) be said to have pIC50 at or above 5?
Ans: Met

Q: Can S=C1NC2/C(=C/c3ccccc3Cl)CNCC2C(c2ccccc2Cl)N1 (stereo not given) be said to have pIC50 at or above 5?
Ans: Not met

Q: Can Fc1ccc(C2=CSC3=NC4=C(CNC/C4=C\c4ccccc4Cl)C(c4ccccc4Cl)N23)cc1 (stereo not given) be said to have pIC50 at or above 5?
Ans: Met

* * *

Target: UniProtKB P81908
Sequence (P81908 whole entry): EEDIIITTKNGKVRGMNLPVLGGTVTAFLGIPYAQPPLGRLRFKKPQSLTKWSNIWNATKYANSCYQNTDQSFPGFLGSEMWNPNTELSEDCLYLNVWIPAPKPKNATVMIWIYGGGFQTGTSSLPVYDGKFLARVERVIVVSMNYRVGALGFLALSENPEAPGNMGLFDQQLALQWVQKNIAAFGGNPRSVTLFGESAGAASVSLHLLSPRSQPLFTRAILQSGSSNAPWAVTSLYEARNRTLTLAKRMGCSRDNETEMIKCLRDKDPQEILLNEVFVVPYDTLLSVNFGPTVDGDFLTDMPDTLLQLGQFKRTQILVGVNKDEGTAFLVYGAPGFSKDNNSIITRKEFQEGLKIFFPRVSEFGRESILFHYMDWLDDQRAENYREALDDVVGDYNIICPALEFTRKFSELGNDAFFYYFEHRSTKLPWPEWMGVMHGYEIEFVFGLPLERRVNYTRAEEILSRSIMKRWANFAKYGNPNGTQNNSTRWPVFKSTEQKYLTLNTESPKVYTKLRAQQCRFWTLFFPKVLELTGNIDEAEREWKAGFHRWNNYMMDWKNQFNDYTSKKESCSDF
Assay: Inhibition of equine serum butyrylcholinesterase using S-butyrylthiocholine chloride as substrate preincubated for 15 mins followed by substrate addition measured for 30 mins by Ellman's method
pIC50: −log10 of the molar value.
pIC50 vs 5: at or above is Yes, below is No.

Q: Can Clc1ccc(/C=C2\CNCC3=C2N=C2SC=C(c4ccccc4)N2C3c2ccc(Cl)cc2)cc1 (stereo not given) be said to have pIC50 at or above 5?
Ans: Yes

Q: Can Fc1ccc(C2=CSC3=NC4=C(CNC/C4=C\c4ccc(Cl)cc4)C(c4ccc(Cl)cc4)N23)cc1 (stereo not given) be said to have pIC50 at or above 5?
Ans: No

* * *

Each entry below carries its recorded Ratio IC50.
Assay: Selectivity ratio of IC50 for equine serum butyrylcholinesterase to IC50 for Electrophorus electricus acetylcholinesterase
Write the value as a bare number.

# example entries with known answers
compound | observedMeasurement
Cc1ccc(/C=C2\CNCC3=C2N=C2SC=C(c4ccc(F)cc4)N2C3c2ccc(C)cc2)cc1 (centres undefined) | 0.76
Fc1ccc(C2=CSC3=NC4=C(CNC/C4=C\c4ccccc4Cl)C(c4ccccc4Cl)N23)cc1 (centres undefined) | 1.3
C1=C(c2ccccc2)N2C(=NC3=C(CNC/C3=C\c3ccccc3)C2c2ccccc2)S1 (centres undefined) | 1.19
COc1ccc(C2=CSC3=NC4=C(CNC/C4=C\c4ccccc4OC)C(c4ccccc4OC)N23)cc1 (centres undefined) | 1.55
Fc1ccc(/C=C2\CNCC3=C2N=C2SC=C(c4ccc(Cl)cc4)N2C3c2ccc(F)cc2)cc1 (centres undefined) | 2.16
Clc1ccccc1/C=C1\CNCC2=C1N=C1SC=C(c3ccccc3)N1C2c1ccccc1Cl (centres undefined) | 1.3
COc1ccc(C2=CSC3=NC4=C(CNC/C4=C\c4ccccc4Cl)C(c4ccccc4Cl)N23)cc1 (centres undefined) | 1.58
Clc1ccc(/C=C2\CNCC3=C2N=C2SC=C(c4ccc(Cl)cc4)N2C3c2ccc(Cl)cc2)cc1 (centres undefined) | 5.11
Cc1ccc(/C=C2\CNCC3=C2N=C2SC=C(c4ccccc4)N2C3c2ccc(C)cc2)cc1 (centres undefined) | 3.21
Fc1ccc(/C=C2\CNCC3=C2N=C2SC=C(c4ccccc4)N2C3c2ccc(F)cc2)cc1 (centres undefined) | 0.98

Q: Reported Ratio IC50, compound COc1ccc(C2=CSC3=NC4=C(CNC/C4=C\c4ccc(Cl)cc4)C(c4ccc(Cl)cc4)N23)cc1 (centres undefined) : ____
Ans: 1.52

Q: Reported Ratio IC50, compound COc1ccc(C2=CSC3=NC4=C(CNC/C4=C\c4ccccc4)C(c4ccccc4)N23)cc1 (centres undefined) : ____
Ans: 0.65

Q: Reported Ratio IC50, compound COc1ccccc1/C=C1\CNCC2=C1N=C1SC=C(c3ccc(F)cc3)N1C2c1ccccc1OC (centres undefined) : ____
Ans: 1.59
